Origin of measurements: PubChem BioAssay (NCI)

# System: COLO 205 colon
# measurement.protocol: NCI tumour cell line growth inhibition, 48 h
Would you mind telling me the reported TGI of each entry?
Numbers only, in µM.

// each listed compound needs a value for TGI
1. COc1ccc(-c2cnoc2-c2ccc(OC)c(OC)c2)cc1OC
2. O=C(CBr)N1CCC2(CC1)SSC1(CCN(C(=O)CBr)CC1)S2
3. CCN(CC)CCNc1ccc2ncn3c4c(OC)ccc(OC)c4c(=O)c1c23

a:
3.86
1.13
20.4

// each listed compound needs a value for TGI
1. CC1(C)CCC[C@@]2(C)C1C[C@H](O)[C@@]1(C)O[C@@](C)([C@H](O)CO)CCC21 (stereo not given in full)
2. CCC1=C(C)/C(=C/c2[nH]c(C(Br)Br)c(CC)c2C)N=C1C(Br)Br
3. O[C@@]1(c2cccs2)c2cccc(Cl)c2[C@](O)(c2cccs2)c2cccc(Cl)c21
4. CO[C@H]1[C@@H](O)[C@@H](C)O[C@@H](O[C@H]2CC[C@@]3(C)[C@H](CC[C@@H]4[C@@H]3CC[C@]3(C)[C@@H](C5=CC(=O)OC5)CC[C@]43O)C2)[C@@H]1O
5. O=C1CSC(/C=C/c2ccccc2)N1c1ccc(-c2ccc(-n3c(-c4ccccc4)nc4ccccc4c3=O)cc2)cc1 (stereo not given)

a:
56.5
21
38.6
0.221
36.6
